Below is a list of entries, each paired with its recorded pIC50 value.
# measurement_target: GSK3b (GST-full length GSK3b) (Homo sapiens (Human), UniProt P49841)
# Sequence (P49841 whole entry): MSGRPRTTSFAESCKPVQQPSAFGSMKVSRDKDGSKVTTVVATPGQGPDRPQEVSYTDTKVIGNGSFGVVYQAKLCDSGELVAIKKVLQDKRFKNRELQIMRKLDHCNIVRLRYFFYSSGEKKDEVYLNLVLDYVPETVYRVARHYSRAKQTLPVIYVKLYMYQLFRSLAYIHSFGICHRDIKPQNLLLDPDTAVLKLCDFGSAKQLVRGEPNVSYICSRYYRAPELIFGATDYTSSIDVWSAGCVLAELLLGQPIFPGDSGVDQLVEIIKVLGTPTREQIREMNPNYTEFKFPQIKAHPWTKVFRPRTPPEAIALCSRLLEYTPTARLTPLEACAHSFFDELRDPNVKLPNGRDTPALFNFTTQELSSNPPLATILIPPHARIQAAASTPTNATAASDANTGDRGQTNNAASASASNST
# assay_remarks: GSK3b TR-FRET kinase assay
# Format: biochemical
# run_conditions: 1 nM GSK3b, 2 μM ATP, 30 minute preincubation, Table 16; read-out: GSK3-B TR-FRET BIOCHEMICAL (TR-FRET); IC50
pIC50: −log10 of the molar value.

Worked examples, 2 compounds total:
>  <structure_string>
CC(C)[C@H]1C[C@]2(CCO1)C1=C(CC(C)(C)CC1=O)Nc1n[nH]cc12

>  <pIC50>
< 5.30

$$$$
>  <structure_string>
CC[C@@]1(c2cccc(C(F)(F)F)c2)C2=C(CC(C)(C)NC2=O)Nc2n[nH]c(F)c21

>  <pIC50>
< 5.30

$$$$

Returns the measured pIC50 for the input compound. Input: CC(=O)N1CC[C@]2(C1)C1=C(CC(C)(C)CC1=O)Nc1n[nH]cc12
5.30 to 6.00
